B1: CD2-associated protein, residues 271 to 331; numbered along this chain, Q9Y5K6 (parent)
chain: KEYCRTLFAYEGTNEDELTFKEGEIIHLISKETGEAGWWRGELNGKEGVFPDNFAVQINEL

variants of: B1; experiment: abundance fitness (aPCA) (normalised: wild type 0, dead -1); higher = more abundant; growth selection in yeast, the domain comes from the species named; settings: Homo sapiens
Classification by abundance fitness | ranges: low (below -0.6), middle (-0.6 to below -0.2), high (-0.2 or more)

[[record]]
residue_change = "E11R"
label_value = "middle"

[[record]]
residue_change = "E35H"
label_value = "high"

[[record]]
residue_change = "A55H"
label_value = "low"

[[record]]
residue_change = "V56C"
label_value = "middle"

[[record]]
residue_change = "G12Y"
label_value = "low"

[[record]]
residue_change = "W39F"
label_value = "middle"

[[record]]
residue_change = "F50W"
label_value = "low"

[[record]]
residue_change = "E22F"
label_value = "low"

[[record]]
residue_change = "L43P"
label_value = "low"

[[record]]
residue_change = "F54R"
label_value = "high"

[[record]]
residue_change = "I58Q"
label_value = "middle"

[[record]]
residue_change = "F54W"
label_value = "middle"

[[record]]
residue_change = "N14Q"
label_value = "high"

[[record]]
residue_change = "G48M"
label_value = "low"

[[record]]
residue_change = "L7Y"
label_value = "low"

[[record]]
residue_change = "A36T"
label_value = "high"

[[record]]
residue_change = "K1L"
label_value = "middle"

[[record]]
residue_change = "I29K"
label_value = "middle"

[[record]]
residue_change = "V56L"
label_value = "middle"

[[record]]
residue_change = "E35P"
label_value = "middle"

[[record]]
residue_change = "K46E"
label_value = "middle"

[[record]]
residue_change = "V49W"
label_value = "high"

[[record]]
residue_change = "I25Q"
label_value = "middle"

[[record]]
residue_change = "R40V"
label_value = "middle"

[[record]]
residue_change = "D52L"
label_value = "high"

[[record]]
residue_change = "F20N"
label_value = "middle"

[[record]]
residue_change = "P51Q"
label_value = "high"

[[record]]
residue_change = "I26M"
label_value = "middle"

[[record]]
residue_change = "P51G"
label_value = "low"

[[record]]
residue_change = "N44L"
label_value = "middle"

[[record]]
residue_change = "H27G"
label_value = "high"

[[record]]
residue_change = "G48E"
label_value = "low"

[[record]]
residue_change = "G12P"
label_value = "middle"

[[record]]
residue_change = "N53Q"
label_value = "high"

[[record]]
residue_change = "D52Y"
label_value = "high"

[[record]]
residue_change = "F54T"
label_value = "high"

[[record]]
residue_change = "E42K"
label_value = "high"

[[record]]
residue_change = "G41Y"
label_value = "low"

[[record]]
residue_change = "G48Q"
label_value = "low"

[[record]]
residue_change = "G23V"
label_value = "low"

[[record]]
residue_change = "T19R"
label_value = "middle"

[[record]]
residue_change = "G37Q"
label_value = "middle"

[[record]]
residue_change = "E60R"
label_value = "high"

[[record]]
residue_change = "E32V"
label_value = "high"

